tested on: production of amyloid beta protein Aβ(1-42) in human WT-APP overexpressing CHO cells; conditions: read-out: Aβ 42 IC50; Geometric mean of 2-8 determinations; human WT-APP overexpressing CHO cells;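 further: Aβ(1-42) released into conditioned medium captured by ELISA after roughly 24 h compound exposure, vehicle and inhibitor controls defining maximal and minimal inhibition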
log10 of IC50 values by entry
Form field - Quantity: IC50; Unit: nM; Scale: log10

compound=COc1cc(C(=O)NCc2c(C)cccc2NS(C)(=O)=O)ccc1-n1cnc(C)c1 parameter="log10 of IC50" measured_result=2.84
compound=COc1cc(C(=O)N[C@H](c2ccccc2)[C@@H](O)c2ccccc2)ccc1-n1cnc(C)c1 parameter="log10 of IC50" measured_result=2.70
compound=COc1cc(C(=O)NCc2cccc(C(F)(F)F)c2)ccc1-n1cnc(C)c1 parameter="log10 of IC50" measured_result=2.65
compound=COc1cc(C(=O)N(C)Cc2cccc3ccccc23)ccc1-n1cnc(C)c1 parameter="log10 of IC50" measured_result=2.92
compound=COc1cc(C(=O)NCc2ccc(-c3ccc(Cl)cc3)s2)ccc1-n1cnc(C)c1 parameter="log10 of IC50" measured_result=2.14

Entry under review: COc1cc(C(=O)N(Cc2cc(-c3ccccc3)ccc2C)C2CC2)ccc1-n1cnc(C)c1 . Reported log10 of IC50?
1.86

Entry under review: COc1cc(C(=O)N[C@@H]2CCC[C@@H]2Cc2cccc(F)c2)ccc1-n1cnc(C)c1 . Reported log10 of IC50?
2.80

Entry under review: COc1cc(C(=O)NCCc2nc3cc(C)ccc3o2)ccc1-n1cnc(C)c1 . Reported log10 of IC50?
2.94

Entry under review: COc1cc(C(=O)NCc2noc3ccc(Cl)cc23)ccc1-n1cnc(C)c1 . Reported log10 of IC50?
2.57

Entry under review: COc1cc(C(=O)NCC2(c3ccc(Cl)cc3)CC2)ccc1-n1cnc(C)c1 . Reported log10 of IC50?
2.36

Entry under review: COc1cc(C(=O)NC(CCC(C)C)c2ccc(C(F)(F)F)cc2)ccc1-n1cnc(C)c1 (stereo not drawn) . Reported log10 of IC50?
2.94

All values here come from patent US20120053165A1.
